Label N if logP falls below 2; label Y in every other case.

smilesData	classification
O=C(O)c1ccc(Oc2ccccc2)cc1	Y

Determine whether measured logP meets or exceeds 2 for CS(=O)(=O)c1ccc(C(=O)O)cc1 N

Determine whether measured logP meets or exceeds 2 for COc1ccccc1N(C)C N

Determine whether measured logP meets or exceeds 2 for CC(=O)Nc1cccc(O)c1 N

Determine whether measured logP meets or exceeds 2 for COc1ccc(N(C)C)cc1 N

Determine whether measured logP meets or exceeds 2 for Nc1ccc(Oc2ccccc2)cc1 Y

Determine whether measured logP meets or exceeds 2 for Nc1ccccc1Oc1ccccc1 Y

Determine whether measured logP meets or exceeds 2 for Oc1cccc(-c2ccccc2)c1 Y

Determine whether measured logP meets or exceeds 2 for Cc1cccc(N(C)C)c1 Y

Determine whether measured logP meets or exceeds 2 for O=C(O)Cc1ccc(C(F)(F)F)cc1 Y

Each recorded value in this set is attributed to the SangsterLogP compilation.
